# procedure.summary: NCI Yeast Anticancer Drug Screen. Data for the sgs1 mgt1 strain (AID 161);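 note: 0% = growth of cultures given vehicle only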
# study.conditions: S. cerevisiae sgs1 mgt1 strain, at 5.0 µM (retest, dose inferred, filed as 0.5), stronger effect = higher value
The panel holds about 79,000 compounds, 15% with a hit somewhere; the sample as a whole holds those more often.
Property: growth inhibition; scope: individual compounds

compound: C[N+](C)(C)CC(=O)N/N=C(\C(=O)NC1=C(Cl)C(=O)c2ccccc2C1=O)C(C#N)c1nc(-c2ccc([N+](=O)[O-])cc2)cs1 (configuration not stated)
growth inhibition / %: 11
--
compound: COC(=O)c1nnn(-c2cccc(C(F)(F)F)c2)c1C(=O)c1ccc(Cl)c(Cl)c1
growth inhibition / %: -5
--
compound: CCCCCC(/C=N/NC(N)=S)C(O)(C(F)(F)F)C(F)(F)F (configuration not stated)
growth inhibition / %: -7
--
compound: Cc1ccc(-c2c(C#N)c(-c3ccc(Cl)cc3)c(C#N)c(=O)n2NS(=O)(=O)c2ccccc2)cc1
growth inhibition / %: 28
--
compound: C[n+]1c(-c2ccc(/C=N\Nc3nnc(S)n3/N=C/c3ccc(-c4cn5ccccc5[n+]4C)cc3)cc2)cn2ccccc21
growth inhibition / %: 3
--
compound: Cc1cccc(/C=N\OCCc2ccccc2)n1
growth inhibition / %: 1
--
compound: O=C1OC(c2ccc(O)cc2)Sc2ccccc21 (configuration not stated)
growth inhibition / %: -43
--
compound: COC(=O)C1(Cc2ccc3c(c2)CCC3)Cc2ccc3c(c2C1O)CCC3 (configuration not stated)
growth inhibition / %: 15
--
compound: NC(=S)C(=S)N/C=C(/c1ccc(Cl)cc1)S(=O)(=O)Cc1ccc(Cl)cc1
growth inhibition / %: -3
--
compound: CCCC(C)(O)C(C)CC (configuration not stated)
growth inhibition / %: -1
--
compound: COC1OC(CO)C(O)C(OC(=O)c2ccc([N+](=O)[O-])cc2)C1OS(=O)(=O)c1ccc(C)cc1 (configuration not stated)
growth inhibition / %: -1
--
compound: COC(=O)CCCCCOS(=O)(=O)c1ccc(C)cc1
growth inhibition / %: -4
--
compound: COC1OC2=CCC3C(=O)NC(=O)C3C2[C@H](OCc2ccccc2)C1OCc1ccccc1 (some centres not stated)
growth inhibition / %: 11
--
compound: COc1cc(Br)c(CC(NC=O)c2ccc3c(c2)OCO3)cc1OC (configuration not stated)
growth inhibition / %: -5
--
compound: COc1ccc(C(O)(c2ccccc2)c2ccccc2)cc1
growth inhibition / %: -3
--
compound: Nc1ccc(C(=O)Oc2cccccc2=O)cc1
growth inhibition / %: 7
--
compound: O=C1C(=O)c2cc(Cl)ccc2-c2ccc(Cl)cc21
growth inhibition / %: 33
--
compound: C#CCN(N=O)C(=O)NCCCC(NC(C)=O)C(=O)NCc1ccccc1 (configuration not stated)
growth inhibition / %: 3
--
compound: CN(C)CCCSc1c2ccccc2nc2cccc([N+](=O)[O-])c12
growth inhibition / %: -8
--
compound: CCC(=O)Oc1ccc(-c2ccccc2)cc1Cl
growth inhibition / %: -2
--
compound: O=Cc1ccc(O)cc1O
growth inhibition / %: 7
--
compound: CCNC(=S)NC1CCCCCCCCCCC1
growth inhibition / %: 26
